Value source: ChEMBL document CHEMBL1817643

target: Vascular endothelial growth factor receptor 2 (Homo sapiens); assay: Inhibition of human N-terminal His-tagged non-phosphorylated VEGFR2 after 60 mins by ligand displacement based enzyme-inhibitor dilution assay
Sequence (P35968 whole entry): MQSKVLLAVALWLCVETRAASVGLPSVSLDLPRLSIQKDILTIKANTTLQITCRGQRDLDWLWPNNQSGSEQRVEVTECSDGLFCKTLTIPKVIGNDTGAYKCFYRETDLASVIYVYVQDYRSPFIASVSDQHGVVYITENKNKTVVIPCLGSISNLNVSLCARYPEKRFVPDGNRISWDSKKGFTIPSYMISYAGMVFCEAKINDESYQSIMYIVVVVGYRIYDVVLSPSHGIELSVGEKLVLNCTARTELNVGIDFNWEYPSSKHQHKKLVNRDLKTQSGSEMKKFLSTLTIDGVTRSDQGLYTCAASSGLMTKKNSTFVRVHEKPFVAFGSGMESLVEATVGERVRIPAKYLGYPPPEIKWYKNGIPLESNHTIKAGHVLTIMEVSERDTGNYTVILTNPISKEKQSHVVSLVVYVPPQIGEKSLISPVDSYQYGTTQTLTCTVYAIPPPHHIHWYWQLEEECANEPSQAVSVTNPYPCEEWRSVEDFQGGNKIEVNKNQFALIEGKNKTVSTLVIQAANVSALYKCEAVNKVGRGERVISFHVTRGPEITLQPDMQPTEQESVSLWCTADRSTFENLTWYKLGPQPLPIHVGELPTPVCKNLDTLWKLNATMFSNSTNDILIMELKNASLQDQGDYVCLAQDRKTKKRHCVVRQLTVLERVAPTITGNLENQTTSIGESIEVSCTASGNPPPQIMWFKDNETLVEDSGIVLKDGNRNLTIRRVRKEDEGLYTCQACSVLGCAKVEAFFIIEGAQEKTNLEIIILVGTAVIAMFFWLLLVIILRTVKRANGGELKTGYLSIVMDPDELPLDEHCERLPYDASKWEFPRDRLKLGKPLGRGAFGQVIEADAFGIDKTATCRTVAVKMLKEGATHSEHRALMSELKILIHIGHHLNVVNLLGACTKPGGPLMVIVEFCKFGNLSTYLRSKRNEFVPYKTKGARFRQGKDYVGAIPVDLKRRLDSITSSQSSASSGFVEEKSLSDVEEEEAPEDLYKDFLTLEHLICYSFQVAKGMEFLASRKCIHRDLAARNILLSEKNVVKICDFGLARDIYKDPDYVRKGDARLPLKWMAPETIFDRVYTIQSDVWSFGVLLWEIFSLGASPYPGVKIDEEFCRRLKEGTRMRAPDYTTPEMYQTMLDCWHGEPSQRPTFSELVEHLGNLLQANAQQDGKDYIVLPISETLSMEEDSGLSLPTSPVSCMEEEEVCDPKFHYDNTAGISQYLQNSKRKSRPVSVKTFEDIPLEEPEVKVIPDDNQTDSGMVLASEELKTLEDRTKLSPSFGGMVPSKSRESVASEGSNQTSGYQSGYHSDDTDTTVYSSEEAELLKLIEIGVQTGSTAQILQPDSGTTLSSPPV
Measured metric: pKi
Quick note: pKi values are minus log10 of concentrations in mol/L.

Any idea what pKi was measured for Cn1ccc2ncnc(Oc3ccc(NC(=O)Nc4cccc(C(F)(F)F)c4)c(F)c3)c21 ?
10.36

###

target: UniProt P35968; assay: Inhibition of human N-terminal His-tagged non-phosphorylated VEGFR2 after 10 mins by Global fit analysis
Measured metric: pKi
Quick note: pKi values are minus log10 of concentrations in mol/L.

Any idea what pKi was measured for Cn1ccc2ncnc(Oc3ccc(NC(=O)Nc4cccc(C(F)(F)F)c4)c(F)c3)c21 ?
8.34

###

molecular target: Vascular endothelial growth factor receptor 2 (Homo sapiens); assay: Inhibition of human N-terminal His-tagged phosphorylated VEGFR2 in presence of ATP measured without preincubation by AlphaScreen analysis
Measured metric: pKi
Quick note: pKi values are minus log10 of concentrations in mol/L.

Any idea what pKi was measured for Cn1ccc2ncnc(Oc3ccc(NC(=O)Nc4cccc(C(F)(F)F)c4)c(F)c3)c21 ?
7.64
